Tested on: PPARg DBDmut IVT, anti-PPARg (DBD mutation: PPARg1 K132A/R137A, NR concentration 270 nM)
Test Method Notes: PBM binding z-score (relative to random genomic background probes); higher = stronger binding; sequences stand for … in GC…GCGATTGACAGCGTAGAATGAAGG
Class field: derived from PBM binding z-score; ranges lower range = under -0.08, middle range = from -0.08 up to 0.7, upper range = 0.7 and over

Hello team, could you let me know which band the following sequence falls into: ACTATTAGTTGACTTAGGGCAACCGTTACGACGC middle range

Class? Entry: ACTAGCAAGCCAAGGGTCACTCAAGATTAGTCCG middle range

Into which bin does this sequence go? CGAACGACGGCATGAGTTGATAGCAAATGCCGAT lower range

Textbook exercise: identify the category of the sequence given here, AGAATGAAGTTACCAAAGATCAGGGAAACGCTTG , according to its measured value. middle range

Note: place this sequence into its band. Item: ACTAGTTTGTCAGCTGAGGTCACACACAATTCGG upper range

Category of AGCGAAAGGTCGTGAGGTGAGTATACAGAAAGGC : upper range

Category lookup for the sequence TCATATAGGTAGTACAGGTGAAAGTCGGCATCTA upper range

Into which bin does this sequence go? GCTAGTTGGTCAGTAAAAGGACACACACCGGTCG lower range

Where would CGAACGAGGCCATGAGTTGATAGCAAATGCCGAT land among the classes by reported PBM binding z-score? lower range

Which class is correct for the following sequence? CGTCCAAGGTCAATGCTAGGTCTGTGAAAGCATT middle range

Would you mind sorting AGTCAAAGTTCAGGACGAGTTAACGTAAAGCACG into the appropriate category? middle range

Lab note: which band did TTACCAAGGTGAACGTCGTTGATCCCTCTGTAGA land in? upper range

Category of CGTCCAAGGTCAGAGAGGACAGTGAATGCCGAGT : lower range

Class? Entry: TCTAGTAGTTGAAGGGCAACCGACGAGTCCGTTT lower range

Hi, small favor: classify CAAACTAGGTCAAATGTCAAAGTCGAGCCAACCA by its PBM binding z-score when you get a moment. upper range

// return the class label for TCTGCTAGGTCAGTTGGTCAGCTAGCGAGCTGCC middle range

Lab note: sort CCTACTGGGCCATCACGTCATTGATATCAACGTT into the matching PBM binding z-score band. middle range

Bin this entry: AGAACGAGGGGAATGAGTTGATAGCACGGGTGGC middle range

For the record CGTCCAAGTTCAATGCTAGGTCAGTGAAAGCATT , report the class its PBM binding z-score corresponds to. middle range

Class (by measured PBM binding z-score) for CAAACTAGGTCAAGGTCAAAGTGGGTTTGTGCCA upper range

Class for CCTACTGGGCCAAAGGTCATTGTTTCCAATGCTC ? upper range

Tag the class for ATCTCTAGGGAAAAGTTCAGTGAATCCCGAGGAT middle range

Into which category would you place CAAACTACGTCACCGGAAGGTCAAAGTCCGCATG ? upper range

Lab note: sort AGAATCAGGTTATTAAGATCAGGGAATTGCGGTC into the matching PBM binding z-score band. upper range

Pick a category. Item: CCAGACAGGTGAGAAGGTCACTCAGCCTCGATTA lower range

Classify this sequence: CCTACTGGGCCAAAAGTCATTGATTCCAATGCTC lower range

Input CCGACCGGGGCAAGGTTACCATAACGCACAGCCA ; output its category lower range

Category of CGAACTAGATCATTGACAGGACAGTGAATAGTAA : middle range

Category of GCCACTGGGGCAAAGCAGGTTACCATAAGGTTGG , please. lower range

Given ATATTTAGGTTAGCTGGGGTCATTCAGACTAGGC , name the class its PBM binding z-score places it in. upper range

Classify this sequence: TTGCCTAGGTCAGATCGGGCCAGTATACGCTATA lower range

Using the reported PBM binding z-score, which band applies to CGTCCAAGGTTAAAGGTCAGTGAAGAGATGACGG ? middle range

Exercise: read the entry GCTATTAGTTGAAAGGGCAAGCGAATGATTCTCG and state which class it falls under. middle range

Which category fits this record: AAAATGAGGTTACCAAAGATCAGGGAAACGCTTG upper range

Tag the class for CGTCCAAGGTCAGCAAGTCAGTGAAAGCGACGTG lower range

Assign a category based on measured PBM binding z-score for TTACCAAGGTGAAGGTCGTTGAGCCCTCTGTAGA and give only the class name. lower range

Sort AATAGAGGGTCACTAGGCCAGAGTAGGTACGAAT into one of the categories. middle range

Please indicate the class for CGAACCAGGTCATCCAGGACAGTGAATACATTGA based on its PBM binding z-score. middle range

Categorize the following entry: CTCGAAAGGTCGGTTGAGGTGCGTATACGGATAA lower range

Please let me know in which category the item AGCATGAGGTTACCAAAGATCAGGGAAACGCTTG belongs. lower range

For GGTAGCAGGCCATTTGGGTCACTCAATGACGGGC , which PBM binding z-score bin applies? lower range

State the class of the sequence shown: CGAACAAGGTCAGAACAGGACAGTGAAGGATGAT upper range

Place this sequence in its band: ATCGAAAGGTCGAAGGTGTGTATACCCACCCGAA middle range

Kindly identify the class of CAAACTAGGACAAAGGTCAAAGTCGAGCCAACCA . upper range

Please classify: ATCTCTAGGTAAAGTTCAGTGATAGATCGATAGA upper range

Could you tell me which band GGTGCTAGGTCAACTGATGGTCAGCTAAAGCTCG belongs to? lower range

Form field 'band' for TCATATAGGTAAAAGGAGAAAGTCGGTGTGGTAA middle range

Looking at GCTTTTAGATCAAGGTTAAGAAAGACTAAGCTAA , which class would you pick? middle range

Pick a category. Item: CCAACTAGGTCAAAGGTCAAAGTCGAGCCAACCA upper range

Lab note: sort AGTCAAAGTTGACTAGGTAACGTAAGATTCAGCT into the matching PBM binding z-score band. upper range

Lab note: sort TCGAGTAGGTTAGGGGTATTCAGAATGGCGTCGA into the matching PBM binding z-score band. middle range
